- test system: LTD4 -induced contractions of guinea-pig trachea (Cavia porcellus)
- Construct: contractions of guinea-pig tracheae; from tissue; host or cells: guinea-pig trachea
- Sequence (Q2NNR5 whole entry): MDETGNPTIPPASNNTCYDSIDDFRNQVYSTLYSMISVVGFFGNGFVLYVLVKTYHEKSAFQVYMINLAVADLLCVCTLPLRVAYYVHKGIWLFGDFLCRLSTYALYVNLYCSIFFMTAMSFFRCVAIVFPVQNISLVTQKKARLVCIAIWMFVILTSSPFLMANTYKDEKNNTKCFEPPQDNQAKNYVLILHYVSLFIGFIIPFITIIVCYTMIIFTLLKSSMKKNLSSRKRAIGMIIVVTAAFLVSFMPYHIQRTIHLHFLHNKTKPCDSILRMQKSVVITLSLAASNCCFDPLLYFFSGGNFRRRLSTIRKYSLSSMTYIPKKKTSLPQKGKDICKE
- assay procedure: inhibition of LTD4-induced contractions of guinea-pig trachea
- Format: cell-based
quantity: pKB values for the inhibition of LTD4 -induced contractions of guinea-pig trachea
Respond numerically, and do not add a unit to the figure.

Illustrative cases are given below, each with its answer.
# compound string, test system, value reported
data = [
    ("CS(=O)(=O)Nc1ccc(SCCc2ccc(OCCCCOc3ccccc3)cc2)c(C(=O)NCCC(=O)O)c1", "LTD4 -induced contractions of guinea-pig trachea (Cavia porcellus)", 5.6),
    ("O=C(O)CCCC(=O)Nc1cc(C(=O)O)ccc1SCCc1ccc(OCCCCOc2ccccc2)cc1", "LTD4 -induced contractions of guinea-pig trachea (Cavia porcellus)", 6.6),
    ("O=C(O)CCCC(=O)Nc1cc(C(=O)O)ccc1OCCc1ccc(OCCCCOc2ccccc2)cc1", "LTD4 -induced contractions of guinea-pig trachea (Cavia porcellus)", 6.4),
]

// pKB values for the inhibition of LTD4 -induced contractions of guinea-pig trachea (LTD4 -induced contractions of guinea-pig trachea (Cavia porcellus)) for O=C(O)CCCCNC(=O)c1cc(C(=O)O)ccc1OCCCc1ccc(OCCCCOc2ccccc2)cc1 = 6.6
